Would you mind telling me the reported IC50 of each entry?
Test system: HPAF-II cells
Assay: HPAF-II Cell Proliferation Assay
Assay type: cell-based
Conditions: Homo sapiens; Table 2, inhibition of cell proliferation; read-out: HPAF-II
Experimental: HPAF-II cells (catalog #CRL-1997) are obtained from the American Type Culture Collect (ATCC, Manassas, VA). […] Plates are read on a Synergy2 or equivalent reader (Biotek, Winooski, VT) using an excitation of 540 nm and an emission of 600 nm. Data is analyzed using Prism software (Graphpad, San Diego, CA) to calculate IC50 values.

In: Looking for the measured IC50 of CC(=O)Nc1cc(-c2cc(-c3cc(NC(=O)Nc4ccc(C(F)(F)F)nc4)ccc3C)cn(C)c2=O)ccn1 , can you help?
Out: 0.5 to 1 µM

In: Looking for the measured IC50 of Cc1ccc(NC(=O)Nc2ccc(C(F)(F)F)nc2)cc1-c1cc(N2CCOCC2)nc(N2CCC(O)CC2)n1 , can you help?
Out: 0.1 to 0.5 µM

In: Looking for the measured IC50 of Cc1ccc(NC(=O)Nc2ccc(C(F)(F)F)nc2)cc1-c1cc(OC[C@H](C)O)nc(N2CCOCC2)c1 , can you help?
Out: < 0.1 µM

In: Looking for the measured IC50 of Cc1ccc(NC(=O)Nc2ccc(C(F)(F)F)nc2)cc1-c1cc(OC[C@@H](C)O)nc(N2CCOCC2)c1 , can you help?
Out: < 0.1 µM

In: Looking for the measured IC50 of Cc1ccc(NC(=O)Nc2cc(C(F)(F)F)cnn2)cc1-c1ccnc(-c2ccnc(NC(=O)C3CC3)c2)c1 , can you help?
Out: 1 to 10 µM

In: Looking for the measured IC50 of CNc1cc(-c2cc(-c3cc(NC(=O)Nc4ccc(C(F)(F)F)nc4)ccc3C)cc(OCCO)n2)ccn1 , can you help?
Out: 0.5 to 1 µM

In: Looking for the measured IC50 of Cc1ccc(NC(=O)Nc2ccc(C(F)(F)F)nc2)cc1-c1ccnc(N2CCOCC2)c1 , can you help?
Out: < 0.1 µM

In: Looking for the measured IC50 of CNC(=O)c1cc(-c2cc(-c3cc(NC(=O)Nc4ccc(C(F)(F)F)nc4)ccc3C)ccn2)ccn1 , can you help?
Out: 0.1 to 0.5 µM

In: Looking for the measured IC50 of CNc1cc(-c2cc(-c3cc(NC(=O)Nc4ccc(C(F)(F)F)nc4)ccc3C)ccn2)ccn1 , can you help?
Out: 0.1 to 0.5 µM

In: Looking for the measured IC50 of CC(=O)Nc1cc(-c2cc(-c3cc(NC(=O)Nc4ccc(C(F)(F)F)nc4)ccc3C)ccn2)ccn1 , can you help?
Out: 0.1 to 0.5 µM

###

tested on: HCT-116 cells; assay: HCT-116 Cell Proliferation Assay; type: cell-based; settings: Homo sapiens, HCT-116; Table 4; read-out: HCT-116 IC50
pIC50: −log10 of the molar value.
property_name: pIC50

In: Looking for the measured pIC50 of CC(=O)Nc1cc(-c2cc(-c3cc(NC(=O)NC4CCC(F)(F)CC4)c(F)cc3C)cc(OCCO)n2)ccn1 [reference compound] , can you help?
Out: 6.00 to 6.30

In: Looking for the measured pIC50 of Cc1ccc(NC(=O)Nc2cnn(CC(F)(F)F)c2)cc1-c1cc(OCCO)nc(N2CCOCC2)c1 [reference compound] , can you help?
Out: 5.00 to 6.00

In: Looking for the measured pIC50 of Cc1ccc(NC(=O)Nc2cn(C)nc2C(F)(F)F)cc1-c1cc(OCCO)nc(N2CCOCC2)c1 [reference compound] , can you help?
Out: 5.00 to 6.00

In: Looking for the measured pIC50 of CNC(=O)c1cc(-c2cc(-c3cc(NC(=O)Nc4ccnc(C(C)(C)C#N)c4)ccc3C)ccn2)ccn1 [reference compound] , can you help?
Out: 5.00 to 6.00

In: Looking for the measured pIC50 of Cc1ccc(NC(=O)NC2CCCCCC2)cc1-c1cc(OCCO)nc(N2CCOCC2)c1 [reference compound] , can you help?
Out: 5.00 to 6.00

In: Looking for the measured pIC50 of Cc1cc(F)c(NC(=O)Nc2cnn(C(C)(C)C)c2)cc1-c1cc(OCCN(C)C)nc(N2CCOCC2)c1 [reference compound] , can you help?
Out: 5.00 to 6.00

In: Looking for the measured pIC50 of CNC(=O)c1cc(-c2cc(-c3cc(NC(=O)NC4CCCCC4)c(F)cc3C)cc(OCCO)n2)ccn1 [reference compound] , can you help?
Out: 5.00 to 6.00

In: Looking for the measured pIC50 of CC(=O)Nc1cc(-c2cc(-c3cc(NC(=O)NCCC4(C)CC4)c(F)cc3C)ccn2)ccn1 [reference compound] , can you help?
Out: 6.00 to 6.30

In: Looking for the measured pIC50 of Cc1cc(F)c(NC(=O)NCCC(C)(C)C)cc1-c1cc(OCCO)nc(N2CCOCC2)c1 [reference compound] , can you help?
Out: 5.00 to 6.00
